In this section, each of the compounds is paired with its reported relative viability.
System: NCI-H2228
Experiment: relative viability (nuclei count vs DMSO), 5 days (fraction); higher = more cells survive
Details: first compound 0.08 µM
propertyLabel: relative viability

compound	testResult
O=c1[nH]c2ccccc2n1C1CCN(CCCC(c2ccc(F)cc2)c2ccc(F)cc2)CC1 [Pimozide] + CC(C)C[C@H](NC(=O)[C@H](Cc1ccccc1)NC(=O)c1cnccn1)B(O)O [Bortezomib] (partner 0.002 µM)	1.11
Cc1cnc(-c2cnc(NCCNc3ccc(C#N)cn3)nc2-c2ccc(Cl)cc2Cl)[nH]1 + CC1(C)CCC(c2ccc(Cl)cc2)=C(CN2CCN(c3ccc(C(=O)NS(=O)(=O)c4ccc(N[C@H](CCN5CCOCC5)CSc5ccccc5)c(S(=O)(=O)C(F)(F)F)c4)cc3)CC2)C1 [Navitoclax] (partner 0.5 µM)	0.854
Cc1cnc(-c2cnc(NCCNc3ccc(C#N)cn3)nc2-c2ccc(Cl)cc2Cl)[nH]1 + C[C@]1(O)C[C@@H](c2nc(-c3ccc4ccc(-c5ccccc5)nc4c3)c3c(N)nccn32)C1 [Linsitinib] (partner 1 µM)	0.678
O=c1[nH]c2ccccc2n1C1CCN(CCCC(c2ccc(F)cc2)c2ccc(F)cc2)CC1 [Pimozide] + C[C@@H](Oc1cc(-c2cnn(C3CCNCC3)c2)cnc1N)c1c(Cl)ccc(F)c1Cl [Crizotinib] (partner 1 µM)	0.406
Cc1cnc(-c2cnc(NCCNc3ccc(C#N)cn3)nc2-c2ccc(Cl)cc2Cl)[nH]1 + CC(C)C[C@H](NC(=O)[C@H](Cc1ccccc1)NC(=O)c1cnccn1)B(O)O [Bortezomib] (partner 0.002 µM)	1.04
Cc1cnc(-c2cnc(NCCNc3ccc(C#N)cn3)nc2-c2ccc(Cl)cc2Cl)[nH]1 + COc1cccc2cc(-c3nc([C@H]4CC[C@H](C(=O)O)CC4)n4ncnc(N)c34)[nH]c12 [OSI-027] (partner 0.5 µM)	0.779
Cc1cnc(-c2cnc(NCCNc3ccc(C#N)cn3)nc2-c2ccc(Cl)cc2Cl)[nH]1 + CCNC(=O)c1noc(-c2cc(C(C)C)c(O)cc2O)c1-c1ccc(CN2CCOCC2)cc1 [Luminespib] (partner 0.01 µM)	0.131

====

System: LCLC-103H
Assay: relative viability (nuclei count vs DMSO), 5 days (fraction); higher = more cells survive
Details: first compound 0.8 µM
Catalogue of relative viability values

molecule	targetSystem	relative viability
Cc1cnc(-c2cnc(NCCNc3ccc(C#N)cn3)nc2-c2ccc(Cl)cc2Cl)[nH]1 + CC(C)C[C@H](NC(=O)[C@H](Cc1ccccc1)NC(=O)c1cnccn1)B(O)O [Bortezomib] (partner 0.002 µM)	LCLC-103H	0.983
Cc1cnc(-c2cnc(NCCNc3ccc(C#N)cn3)nc2-c2ccc(Cl)cc2Cl)[nH]1 + Nc1nc2[nH]cc(CCc3ccc(C(=O)N[C@@H](CCC(=O)O)C(=O)O)cc3)c2c(=O)[nH]1 [Pemetrexed] (partner 0.2 µM)	LCLC-103H	0.453
Cc1cnc(-c2cnc(NCCNc3ccc(C#N)cn3)nc2-c2ccc(Cl)cc2Cl)[nH]1 + COc1cc2c(Oc3ccc(NC(=O)C4(C(=O)Nc5ccc(F)cc5)CC4)cc3F)ccnc2cc1OCCCN1CCOCC1 [Foretinib] (partner 0.25 µM)	LCLC-103H	0.745
O=c1[nH]c2ccccc2n1C1CCN(CCCC(c2ccc(F)cc2)c2ccc(F)cc2)CC1 [Pimozide] + CC(=O)c1c(C)c2cnc(Nc3ccc(N4CCNCC4)cn3)nc2n(C2CCCC2)c1=O [Palbociclib] (partner 0.5 µM)	LCLC-103H	0.428

====

Tested on: BEN
Assay: relative viability (nuclei count vs DMSO), 5 days (fraction); higher = more cells survive
Settings: first compound 0.01581 µM
propertyLabel: relative viability

compound	testResult
Nc1ccn([C@@H]2O[C@H](CO)[C@@H](O)[C@@H]2O)c(=O)n1 [Cytarabine] + CC(=O)c1c(C)c2cnc(Nc3ccc(N4CCNCC4)cn3)nc2n(C2CCCC2)c1=O [Palbociclib] (partner 0.5 µM)	0.431
Nc1ccn([C@@H]2O[C@H](CO)[C@@H](O)[C@@H]2O)c(=O)n1 [Cytarabine] + COc1cccc2cc(-c3nc([C@H]4CC[C@H](C(=O)O)CC4)n4ncnc(N)c34)[nH]c12 [OSI-027] (partner 0.5 µM)	0.315
COc1cc2nccc(Oc3ccc(NC(=O)Nc4cc(C)on4)c(Cl)c3)c2cc1OC [Tivozanib] + C[C@@H](Oc1cc(-c2cnn(C3CCNCC3)c2)cnc1N)c1c(Cl)ccc(F)c1Cl [Crizotinib] (partner 1 µM)	0.865
Nc1ccn([C@@H]2O[C@H](CO)[C@@H](O)[C@@H]2O)c(=O)n1 [Cytarabine] + COc1cc2c(Oc3ccc(NC(=O)C4(C(=O)Nc5ccc(F)cc5)CC4)cc3F)ccnc2cc1OCCCN1CCOCC1 [Foretinib] (partner 0.25 µM)	0.515

====

Tested on: HCC-44
Assay: relative viability (nuclei count vs DMSO), 5 days (fraction); higher = more cells survive
Details: first compound 0.006325 µM
Recorded relative viability for the following compounds

compound	relative viability
CC(=O)O[C@@]12CO[C@@H]1C[C@H](O)[C@@]1(C)C(=O)[C@H](O)C3=C(C)[C@@H](OC(=O)[C@H](O)[C@@H](NC(=O)OC(C)(C)C)c4ccccc4)C[C@@](O)([C@@H](OC(=O)c4ccccc4)[C@H]21)C3(C)C [Docetaxel] + CS(=O)(=O)N1CCN(Cc2cc3nc(-c4cccc5[nH]ncc45)nc(N4CCOCC4)c3s2)CC1 [Pictilisib] (partner 1 µM)	0.144
CC(=O)O[C@@]12CO[C@@H]1C[C@H](O)[C@@]1(C)C(=O)[C@H](O)C3=C(C)[C@@H](OC(=O)[C@H](O)[C@@H](NC(=O)OC(C)(C)C)c4ccccc4)C[C@@](O)([C@@H](OC(=O)c4ccccc4)[C@H]21)C3(C)C [Docetaxel] + CC(=O)Nc1cccc(-n2c(=O)n(C3CC3)c(=O)c3c(Nc4ccc(I)cc4F)n(C)c(=O)c(C)c32)c1 [Trametinib] (partner 0.02 µM)	0.577
CC(=O)O[C@@]12CO[C@@H]1C[C@H](O)[C@@]1(C)C(=O)[C@H](O)C3=C(C)[C@@H](OC(=O)[C@H](O)[C@@H](NC(=O)OC(C)(C)C)c4ccccc4)C[C@@](O)([C@@H](OC(=O)c4ccccc4)[C@H]21)C3(C)C [Docetaxel] + Nc1ncn([C@H]2C[C@H](O)[C@@H](CO)O2)c(=O)n1 [Decitabine] (partner 2 µM)	0.472
CC(=O)O[C@@]12CO[C@@H]1C[C@H](O)[C@@]1(C)C(=O)[C@H](O)C3=C(C)[C@@H](OC(=O)[C@H](O)[C@@H](NC(=O)OC(C)(C)C)c4ccccc4)C[C@@](O)([C@@H](OC(=O)c4ccccc4)[C@H]21)C3(C)C [Docetaxel] + O=C(c1cc(Cc2n[nH]c(=O)c3ccccc23)ccc1F)N1CCN(C(=O)C2CC2)CC1 [Olaparib] (partner 8 µM)	0.682

====

Test system: PC-3 [JPC-3]
Assay: relative viability (nuclei count vs DMSO), 5 days (fraction); higher = more cells survive
Settings: first compound 158.11 µM
relative viability less than 0.6 is Met; relative viability greater than or equal to 0.6 is Not met.

compound	targetSystem	answerLabel
O=C(O)CCCCC(CCSCc1ccccc1)SCc1ccccc1 (stereo not given) [CPI-613] + CC(=O)Nc1cccc(-n2c(=O)n(C3CC3)c(=O)c3c(Nc4ccc(I)cc4F)n(C)c(=O)c(C)c32)c1 [Trametinib] (partner 0.02 µM)	PC-3 [JPC-3]	Met
O=C(O)CCCCC(CCSCc1ccccc1)SCc1ccccc1 (stereo not given) [CPI-613] + O=C(CCCCCCC(=O)Nc1ccccc1)NO [Vorinostat] (partner 1 µM)	PC-3 [JPC-3]	Not met
O=C(O)CCCCC(CCSCc1ccccc1)SCc1ccccc1 (stereo not given) [CPI-613] + CC1(C)CCC(c2ccc(Cl)cc2)=C(CN2CCN(c3ccc(C(=O)NS(=O)(=O)c4ccc(N[C@H](CCN5CCOCC5)CSc5ccccc5)c(S(=O)(=O)C(F)(F)F)c4)cc3)CC2)C1 [Navitoclax] (partner 0.5 µM)	PC-3 [JPC-3]	Met
O=C(O)CCCCC(CCSCc1ccccc1)SCc1ccccc1 (stereo not given) [CPI-613] + CCNC(=O)c1noc(-c2cc(C(C)C)c(O)cc2O)c1-c1ccc(CN2CCOCC2)cc1 [Luminespib] (partner 0.01 µM)	PC-3 [JPC-3]	Met
O=C(O)CCCCC(CCSCc1ccccc1)SCc1ccccc1 (stereo not given) [CPI-613] + CC(C)C[C@H](NC(=O)[C@H](Cc1ccccc1)NC(=O)c1cnccn1)B(O)O [Bortezomib] (partner 0.002 µM)	PC-3 [JPC-3]	Met

====

Tested on: NCI-H1648
Assay: relative viability (nuclei count vs DMSO), 5 days (fraction); higher = more cells survive
Conditions: first compound 0.0002 µM
List of relative viability values.

compound	relative viability
CC(=O)O[C@@]12CO[C@@H]1C[C@H](O)[C@@]1(C)C(=O)[C@H](O)C3=C(C)[C@@H](OC(=O)[C@H](O)[C@@H](NC(=O)OC(C)(C)C)c4ccccc4)C[C@@](O)([C@@H](OC(=O)c4ccccc4)[C@H]21)C3(C)C [Docetaxel] + NC(=O)Nc1cc(-c2cccc(F)c2)sc1C(=O)N[C@H]1CCCNC1 [AZD7762] (partner 0.2 µM)	0.589
CC(=O)O[C@@]12CO[C@@H]1C[C@H](O)[C@@]1(C)C(=O)[C@H](O)C3=C(C)[C@@H](OC(=O)[C@H](O)[C@@H](NC(=O)OC(C)(C)C)c4ccccc4)C[C@@](O)([C@@H](OC(=O)c4ccccc4)[C@H]21)C3(C)C [Docetaxel] + CC(=O)c1c(C)c2cnc(Nc3ccc(N4CCNCC4)cn3)nc2n(C2CCCC2)c1=O [Palbociclib] (partner 0.5 µM)	0.265
CC(=O)O[C@@]12CO[C@@H]1C[C@H](O)[C@@]1(C)C(=O)[C@H](O)C3=C(C)[C@@H](OC(=O)[C@H](O)[C@@H](NC(=O)OC(C)(C)C)c4ccccc4)C[C@@](O)([C@@H](OC(=O)c4ccccc4)[C@H]21)C3(C)C [Docetaxel] + CC(=O)Nc1cccc(-n2c(=O)n(C3CC3)c(=O)c3c(Nc4ccc(I)cc4F)n(C)c(=O)c(C)c32)c1 [Trametinib] (partner 0.02 µM)	0.435
